B1: OR4K15 (parent)
chain: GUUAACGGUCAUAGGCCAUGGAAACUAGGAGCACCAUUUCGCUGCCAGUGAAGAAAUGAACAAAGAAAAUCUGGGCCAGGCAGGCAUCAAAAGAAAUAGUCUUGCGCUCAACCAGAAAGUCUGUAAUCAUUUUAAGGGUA

# Variants of: B1
# METHOD_SUMMARY: self-cleavage, relative activity (ratio to wild type); higher = more cleavage; in vitro, sequencing; the parent is a self-cleaving ribozyme
PROPERTY_NAME: self-cleavage
Lab note: jot down the number only; don't add units.

Some solved cases for reference:
- CHANGES: "A56G U57A"
  PROPERTY_NAME: "self-cleavage"
  NUMBER: 1.53
- CHANGES: "C6U G74A"
  PROPERTY_NAME: "self-cleavage"
  NUMBER: 0.46
- CHANGES: "A11G A114G"
  PROPERTY_NAME: "self-cleavage"
  NUMBER: 0.46
- CHANGES: "A64C A68G"
  PROPERTY_NAME: "self-cleavage"
  NUMBER: 1.44

Enquiry: Any idea what self-cleavage was measured for C46U A59G ?
Return: 1.81

Enquiry: Reported self-cleavage, variant A62G C112U : ____
Return: 0.01
